These entries and their values trace back to patent US10259810B2.

target system: ΔF508-CFTR (Homo sapiens, UniProt P13569, DEL508-508)
Construct: host or cells: CFBE41o-, doxycycline-inducible
Sequence (P13569 with tags, fused parts or gaps DEL508-508): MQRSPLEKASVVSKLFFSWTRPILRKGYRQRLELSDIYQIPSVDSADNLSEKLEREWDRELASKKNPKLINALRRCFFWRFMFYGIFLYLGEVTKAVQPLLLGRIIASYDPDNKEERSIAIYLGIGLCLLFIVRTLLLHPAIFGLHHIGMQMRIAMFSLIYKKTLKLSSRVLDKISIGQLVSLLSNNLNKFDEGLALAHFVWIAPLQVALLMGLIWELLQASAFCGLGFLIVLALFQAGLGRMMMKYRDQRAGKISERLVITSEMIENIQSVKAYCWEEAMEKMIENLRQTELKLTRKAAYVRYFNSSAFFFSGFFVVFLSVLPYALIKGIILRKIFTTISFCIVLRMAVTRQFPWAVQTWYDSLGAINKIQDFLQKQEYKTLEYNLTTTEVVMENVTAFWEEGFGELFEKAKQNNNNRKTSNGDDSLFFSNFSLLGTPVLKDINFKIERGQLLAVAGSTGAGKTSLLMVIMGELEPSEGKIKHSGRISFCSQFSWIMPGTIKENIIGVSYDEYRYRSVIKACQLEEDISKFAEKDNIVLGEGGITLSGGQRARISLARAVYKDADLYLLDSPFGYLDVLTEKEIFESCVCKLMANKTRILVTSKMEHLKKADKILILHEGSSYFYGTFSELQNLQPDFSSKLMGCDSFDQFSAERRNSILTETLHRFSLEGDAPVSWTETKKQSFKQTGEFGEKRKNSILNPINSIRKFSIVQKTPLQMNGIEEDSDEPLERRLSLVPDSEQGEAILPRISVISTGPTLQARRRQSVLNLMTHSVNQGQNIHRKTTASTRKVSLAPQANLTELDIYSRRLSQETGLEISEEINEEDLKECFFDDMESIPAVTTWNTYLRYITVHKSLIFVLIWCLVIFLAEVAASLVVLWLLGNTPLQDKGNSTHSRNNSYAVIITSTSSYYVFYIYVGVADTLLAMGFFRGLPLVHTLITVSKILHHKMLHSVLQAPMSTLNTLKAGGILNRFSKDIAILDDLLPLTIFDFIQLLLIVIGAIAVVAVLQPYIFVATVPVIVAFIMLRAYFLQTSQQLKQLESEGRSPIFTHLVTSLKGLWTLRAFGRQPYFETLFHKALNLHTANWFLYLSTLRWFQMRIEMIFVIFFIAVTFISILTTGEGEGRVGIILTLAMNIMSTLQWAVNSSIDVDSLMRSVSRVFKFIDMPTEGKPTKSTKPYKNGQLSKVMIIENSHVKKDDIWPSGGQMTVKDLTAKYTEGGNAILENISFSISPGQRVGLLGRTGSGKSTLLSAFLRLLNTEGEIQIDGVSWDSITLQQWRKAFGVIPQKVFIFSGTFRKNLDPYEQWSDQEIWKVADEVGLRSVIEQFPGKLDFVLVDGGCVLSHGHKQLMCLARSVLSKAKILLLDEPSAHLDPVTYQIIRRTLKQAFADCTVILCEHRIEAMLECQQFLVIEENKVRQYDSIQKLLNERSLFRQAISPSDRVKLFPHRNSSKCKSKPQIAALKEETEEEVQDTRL
measurement protocol: CFTR cell surface levels using HRP-tagged ΔF508-CFTR expressing CFBE cells, in the presence of a co-corrector
Type: cell-based
measurement conditions: HRP-tagged ΔF508-CFTR CFBE cells, in the presence of 3 μM co-corrector; read-out: EC50
measured quantity: EC50 (nM)
Give your result in nM as a bare value.

Given item CS(=O)(=O)NC(=O)c1cc(N2CCC(OCC(=O)N3CCCC3)CC2)c2c(C3CCC3)nn(-c3ccccc3)c2n1 , the value recorded as its EC50 is 203

Given item CS(=O)(=O)NC(=O)c1cc(N2CC3(CCCCO3)C2)c2c(C3CCC3)nn(-c3ccccc3)c2n1 , the value recorded as its EC50 is 328

Given item CCOC(=O)N1CCC(NS(=O)(=O)NC(=O)c2cc(N3CCC(CN4CCCC4)CC3)c3c(C4CCC4)nn(-c4ccccc4)c3n2)CC1 , the value recorded as its EC50 is 139

Given item COCCS(=O)(=O)NC(=O)c1cc(N2CCC(N3CCCCC3)CC2)c2c(C3CCC3)nn(-c3ccc(F)cc3)c2n1 , the value recorded as its EC50 is 683

Given item CS(=O)(=O)NC(=O)c1cc(OCC2CCOCC2)c2c(C3CCC3)nn(-c3ccc(F)cc3)c2n1 , the value recorded as its EC50 is 184

Given item CC(C)c1nn(-c2cccc(N3CCC3)c2)c2nc(C(=O)NS(C)(=O)=O)cc(-c3ccc(N4CCOCC4)cc3)c12 , the value recorded as its EC50 is 443

Given item CC(C)Oc1nn(C2CCCCC2)c2nc(C(=O)NS(C)(=O)=O)cc(-c3ccc(CN4CCN(C)CC4)cc3)c12 , the value recorded as its EC50 is 196

Given item O=C(NS(=O)(=O)N1CCC1)c1cc(N2CCC(N3CCOCC3)CC2)c2c(C3CCC3)nn(-c3ccc(F)cc3)c2n1 , the value recorded as its EC50 is 54.7

Given item CN1CCN(C(=O)[C@@H]2CCCN2S(=O)(=O)NC(=O)c2cc(OCC3CCOCC3)c3c(C4CCC4)nn(-c4ccccc4)c3n2)CC1 , the value recorded as its EC50 is 2780

Given item CN(C)S(=O)(=O)NC(=O)c1cc(N2CCC(CN3CCOCC3)CC2)c2c(C3CCC3)nn(C3CCCCC3)c2n1 , the value recorded as its EC50 is 92.2

Given item CN(C)S(=O)(=O)NC(=O)c1cc(CN2CCC(N3CCOCC3)CC2)c2c(C3CCC3)nn(-c3ccc(F)cc3)c2n1 , the value recorded as its EC50 is 1430

Given item CCS(=O)(=O)NC(=O)c1cc(-c2ccc(N3CCOCC3)nc2)c2c(C)nn(-c3cccc(C(F)(F)F)c3)c2n1 , the value recorded as its EC50 is 422

Given item COC1CCN(C2CCN(c3cc(C(=O)NS(=O)(=O)N4CCC4)nc4c3c(C3CCC3)nn4-c3ccc(F)cc3)CC2)CC1 , the value recorded as its EC50 is 154

Given item COCC1CCN(c2cc(C(=O)NS(=O)(=O)CC(C)C)nc3c2c(C2CCC2)nn3-c2ccccc2)CC1 , the value recorded as its EC50 is 241

Given item CC(C)c1nn(-c2cccc(N3CCOCC3)c2)c2nc(C(=O)NS(C)(=O)=O)cc(-c3cnc(N4CCC(C#N)CC4)nc3)c12 , the value recorded as its EC50 is 337

Given item CC(C)N1CCN(C2CCN(c3cc(C(=O)NS(=O)(=O)N(C)C)nc4c3c(C3CCC3)nn4-c3ccc(F)cc3)CC2)CC1 , the value recorded as its EC50 is 158

Given item CC(C)c1nn(-c2cccc(OC(F)(F)F)c2)c2nc(C(=O)NS(C)(=O)=O)cc(-c3ccc(N4CCOCC4)cc3)c12 , the value recorded as its EC50 is 322

Given item CN(C)S(=O)(=O)NC(=O)c1cc(-c2ccc(CCN3CCOCC3)cc2)c2c(C3CCC3)nn(C3CCCCC3)c2n1 , the value recorded as its EC50 is 151

Given item COC(=O)N1CCC(COc2cc(C(=O)NS(C)(=O)=O)nc3c2c(C(C)C)nn3-c2ccc(F)cc2)CC1 , the value recorded as its EC50 is 61.4

Given item COCC1CCN(c2cc(C(=O)NS(=O)(=O)N3CCC(N4CCC[C@H]4COC)CC3)nc3c2c(C2CCC2)nn3-c2ccccc2)CC1 , the value recorded as its EC50 is 140

Given item CCOC(=O)N1CCC(c2cc(C(=O)NS(=O)(=O)N(C)C)nc3c2c(C(C)C)nn3-c2ccc(F)cc2)CC1 , the value recorded as its EC50 is 288

Given item COCC1CCN(c2cc(C(=O)N(C)S(C)(=O)=O)nc3c2c(C2CCC2)nn3-c2ccccc2)CC1 , the value recorded as its EC50 is 197

Given item CC(C)c1nn(C2CCCCC2)c2nc(C(=O)NS(C)(=O)=O)cc(-c3ccc(N4CCOC(C)(C)C4)nc3)c12 , the value recorded as its EC50 is 342

Given item CCS(=O)(=O)NC(=O)c1cc(-c2cnc(N(C)C)nc2)c2c(C(C)C)nn(-c3cccc(N(C)C)c3)c2n1 , the value recorded as its EC50 is 660

Given item COCCS(=O)(=O)NC(=O)c1cc(-c2ccc(OC)cc2)c2c(C)nn(CC(C)C)c2n1 , the value recorded as its EC50 is 518

Given item CCS(=O)(=O)NC(=O)c1cc(N2CCCCC2)c2c(C)nn(-c3ccccc3)c2n1 , the value recorded as its EC50 is 1630

Given item COCC1CCN(c2cc(C(=O)NS(=O)(=O)CCC(=O)N(C)C)nc3c2c(C2CCC2)nn3-c2ccccc2)CC1 , the value recorded as its EC50 is 81

###

Could you please report measured % Activation for the items listed next?
target system: ΔF508-CFTR (Homo sapiens, UniProt P13569, DEL508-508)
Construct: host or cells: CFBE41o-, doxycycline-inducible
measurement protocol: CFTR cell surface levels using HRP-tagged ΔF508-CFTR expressing CFBE cells, in the presence of a co-corrector
Format: cell-based
measurement conditions: HRP-tagged ΔF508-CFTR CFBE cells, in the presence of 3 μM co-corrector
Give your result in % as a bare value.

Given item CC(C)Oc1nn(C2CCCCC2)c2nc(C(=O)NS(C)(=O)=O)cc(-c3ccc(CN4CCN(C)CC45COC5)cc3)c12 [Compound 641] , the value recorded as its % Activation is 443.12

Given item CS(=O)(=O)NC(=O)c1cc(C2CCN(C3CCOCC3)CC2)c2c(C3CCC3)nn(-c3ccc(F)cc3)c2n1 [Compound 599] , the value recorded as its % Activation is 285.2

Given item CNS(=O)(=O)NC(=O)c1cc(N2CCC(N3CCOCC3)CC2)c2c(C3CCC3)nn(-c3ccc(F)cc3)c2n1 [Compound 517] , the value recorded as its % Activation is 520.08

Given item CC(C)c1nn(-c2cccc(N(C)C)c2)c2nc(C(=O)NS(C)(=O)=O)cc(-c3cnc(N(C)C)nc3)c12 [Compound 77] , the value recorded as its % Activation is 449.85

Given item CCS(=O)(=O)NC(=O)c1cc(-c2cnc(N(C)C)nc2)c2c(C)nn(C3CCCCC3)c2n1 [Compound 50] , the value recorded as its % Activation is 300

Given item COCC1(OC)CCN(c2cc(C(=O)NS(C)(=O)=O)nc3c2c(C2CCC2)nn3-c2ccccc2)CC1 [Compound 247] , the value recorded as its % Activation is 281.7

Given item CS(=O)(=O)NC(=O)c1cc(OCCC2CCOCC2)c2c(C3CCC3)nn(-c3ccccc3)c2n1 [Compound 198] , the value recorded as its % Activation is 321.57

Given item CC(C)N1CCC(c2cc(C(=O)NS(C)(=O)=O)nc3c2c(C2CCC2)nn3-c2ccc(F)cc2)CC1 [Compound 611] , the value recorded as its % Activation is 236.7

Given item CCOC(=O)N1CCC(NS(=O)(=O)NC(=O)c2cc(N3CCC(CN4CCCC4)CC3)c3c(C4CCC4)nn(-c4ccccc4)c3n2)CC1 [Compound 457] , the value recorded as its % Activation is 508

Given item COCC1CCN(c2cc(C(=O)NS(=O)(=O)N(C)C)nc3c2c(C2CCC2)nn3-c2ccnc(C3CCOCC3)c2)CC1 [Compound 531] , the value recorded as its % Activation is 349.65

Given item CS(=O)(=O)NC(=O)c1cc(CN2CCOCC2)c2c(C3CCC3)nn(-c3ccc(F)cc3)c2n1 [Compound 519] , the value recorded as its % Activation is 252.3

Given item COCC1CCN(c2cc(C(=O)NS(C)(=O)=O)nc3c2c(C2CCC2)nn3-c2ccnc(C)c2)CC1 [Compound 430] , the value recorded as its % Activation is 383.7

Given item CCS(=O)(=O)NC(=O)c1cc(-c2ccc(OC)cc2)c2c(C)nn(-c3ccc(C)c(Cl)c3)c2n1 [Compound 114] , the value recorded as its % Activation is 277.45

Given item CS(=O)(=O)NC(=O)c1cc(N2CCC(O)(CC#N)CC2)c2c(C3CCC3)nn(-c3ccccc3)c2n1 [Compound 326] , the value recorded as its % Activation is 325.3

Given item COCCN1CCN(c2cc(C(=O)NS(C)(=O)=O)nc3c2c(C(C)C)nn3-c2ccc(F)cc2)CC1 [Compound 340] , the value recorded as its % Activation is 319.2

Given item CC(C)Oc1nn(C2CCCCC2)c2nc(C(=O)NS(C)(=O)=O)cc(-c3ccc(C(=O)N4CC5CN(C)CC5C4)cc3)c12 (stereo not drawn) [Compound 637] , the value recorded as its % Activation is 413.4

Given item COCCS(=O)(=O)NC(=O)c1cc(-c2ccc(N3CCC(C#N)CC3)nc2)c2c(n1)n(-c1ccccc1)nc2[C@H]1C[C@H](C)C1 [Compound 276] , the value recorded as its % Activation is 417.25

Given item CN(C)S(=O)(=O)NC(=O)c1cc(C2CCC(N3CCOCC3)CC2)c2c(C3CCC3)nn(-c3ccccc3)c2n1 (stereo not drawn) [Compound 649] , the value recorded as its % Activation is 231.7

Given item CN(C)S(=O)(=O)NC(=O)c1cc(N2CCC(N3CCOCC3)CC2)c2c(C3CCC3)nn(C3CCCCC3)c2n1 [Compound 420] , the value recorded as its % Activation is 486.65

Given item CCS(=O)(=O)NC(=O)c1cc(N2CCC(N3CCOCC3)CC2)c2c(C3CCC3)nn(-c3ccc(F)cc3)c2n1 [Compound 466] , the value recorded as its % Activation is 522.47

Given item CO[C@H]1CC[C@@H](Oc2cc(C(=O)NS(C)(=O)=O)nc3c2c(C2CCC2)nn3-c2ccccc2)CC1 [Compound 211] , the value recorded as its % Activation is 288.3

Given item COC1CCCN(C2CCN(c3cc(C(=O)NS(=O)(=O)N(C)C)nc4c3c(C3CCC3)nn4-c3ccc(F)cc3)CC2)C1 (stereo not drawn) [Compound 572] , the value recorded as its % Activation is 412.9

Given item CN1CCN(Cc2cc(C(=O)NS(C)(=O)=O)nc3c2c(C2CCC2)nn3-c2ccc(F)cc2)CC1 [Compound 518] , the value recorded as its % Activation is 189.55

Given item N#CC1CCN(S(=O)(=O)NC(=O)c2cc(N3CCC(N4CCOCC4)CC3)c3c(C4CCC4)nn(-c4ccc(F)cc4)c3n2)CC1 [Compound 505] , the value recorded as its % Activation is 389

Given item CC(C)c1nn(-c2ccnc(N3CCCC3)c2)c2nc(C(=O)NS(C)(=O)=O)cc(-c3ccc(N4CCC(C#N)CC4)cc3)c12 [Compound 169] , the value recorded as its % Activation is 519.3

Given item COC1CCN(C2CCN(c3cc(C(=O)NS(=O)(=O)N4CC(OC)C4)nc4c3c(C3CCC3)nn4-c3ccc(F)cc3)CC2)CC1 [Compound 645] , the value recorded as its % Activation is 384.37

Given item CC(C)c1nn(-c2cccc(N3CCOCC3)n2)c2nc(C(=O)NS(C)(=O)=O)cc(-c3ccc(N4CCOCC4)cc3)c12 [Compound 128] , the value recorded as its % Activation is 529.57
